- measurementTarget: Human CGRP1 Receptor (Homo sapiens, UniProt O60894+Q16602)
- Construct: endogenous in cells; host or cells: SK-N-MC cells (membrane homogenate)
- Sequence (Q16602 23-461): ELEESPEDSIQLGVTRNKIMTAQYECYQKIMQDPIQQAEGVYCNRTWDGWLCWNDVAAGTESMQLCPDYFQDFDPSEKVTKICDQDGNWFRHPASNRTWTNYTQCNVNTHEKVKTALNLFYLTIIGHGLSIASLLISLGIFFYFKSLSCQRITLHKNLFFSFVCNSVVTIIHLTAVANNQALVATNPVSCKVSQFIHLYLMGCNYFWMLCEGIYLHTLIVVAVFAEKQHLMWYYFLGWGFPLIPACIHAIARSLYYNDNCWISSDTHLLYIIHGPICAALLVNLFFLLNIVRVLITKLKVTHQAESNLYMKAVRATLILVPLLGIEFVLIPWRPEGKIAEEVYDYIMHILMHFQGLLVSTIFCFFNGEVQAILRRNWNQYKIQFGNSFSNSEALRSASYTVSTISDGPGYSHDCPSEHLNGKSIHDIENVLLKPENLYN
- Sequence (O60894 27-148): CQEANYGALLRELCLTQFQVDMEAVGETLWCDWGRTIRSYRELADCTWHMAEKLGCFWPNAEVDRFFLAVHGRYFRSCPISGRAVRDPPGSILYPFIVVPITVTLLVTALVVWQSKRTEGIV
- protocolDetails: CGRP Binding Assay ([125I]-CGRP radioligand displacement, SK-N-MC membrane homogenate)
- conditionLabel: [125I]-CGRP displacement, SK-N-MC homogenate, room temperature 2 h; read-out: Human CGRP1 Receptor IC50
Can you tell me IC50 for the items I'm about to list?

Ask | Query (compound): Cc1noc(C(CC(=O)N2CCC(N3Cc4ccccc4NC3=O)CC2)Cc2cc(C)c3[nH]ncc3c2)n1 (racemic) ; field requested: IC50
Reply | 10 to 100 nM

Ask | Query (compound): Cc1noc(C(Cc2cc(C)c3[nH]ncc3c2)NC(=O)N2CCC(N3Cc4ccccc4NC3=O)CC2)n1 (racemic) ; field requested: IC50
Reply | 10 to 100 nM

Ask | Query (compound): Cc1cc(CC(NC(=O)N2CCC(N3Cc4ccccc4NC3=O)CC2)c2nccn2Cc2ccccc2F)cc2cn[nH]c12 (racemic) ; field requested: IC50
Reply | < 10 nM

Ask | Query (compound): Cc1cc(CC(OC(=O)N2CCC(N3Cc4ccccc4NC3=O)CC2)c2cc(C=O)ccn2)cc2cn[nH]c12 (racemic) ; field requested: IC50
Reply | < 10 nM

Ask | Query (compound): Cc1noc(C(CC(=O)N2CCC3(CC2)OC(=O)Nc2ccccc23)Cc2cc(C)c3[nH]ncc3c2)n1 (racemic) ; field requested: IC50
Reply | 100 to 1000 nM

Ask | Query (compound): Cc1cc(CC(OC(=O)N2CCC(N3Cc4cccc(F)c4NC3=O)CC2)c2cccnc2)cc2cn[nH]c12 (stereo not shown) ; field requested: IC50
Reply | 100 to 1000 nM

Ask | Query (compound): Cc1cc(CC(CC(=O)N2CCC(N3Cc4ccccc4NC3=O)CC2)c2ccc(C=O)cn2)cc2cn[nH]c12 (racemic) ; field requested: IC50
Reply | < 10 nM
